Tested on: soybean (Glycine max)
MEASUREMENT DESCRIPTION: Test C greenhouse herbicide test, pre- and postemergence
Assay type: in vivo
DETAILS: Postemergence, 250 g ai/ha; scale 0 to 100, 0 no effect, 100 complete control; 13 to 15 d
Hi, to clarify the labels: T covers Plant response rating, Soybean from 5 upward, F covers anything below 5.

CCC(=O)Oc1c(C)nn(C)c(=O)c1-c1c(C)sc2ccc(C)cc12: T

Does Plant response rating, Soybean meet or surpass 5 for COC(=O)Oc1c(Br)nn(C)c(=O)c1-c1c(C)ccc2ccccc12 ?
T

# check: Plant response rating, Soybean of CCC(=O)Oc1c(C)nn(C)c(=O)c1-c1ccc(Br)c2ccccc12 is greater than or equal to 5
T

Could you tell me if the measured Plant response rating, Soybean of Cc1nn(C)c(=O)c(-c2ccc(F)c3ccccc23)c1OC(=O)CC(F)(F)F reaches 5 or more?
T

Is reported Plant response rating, Soybean greater than or equal to 5 here: CC(=O)Oc1c(C)nn(C)c(=O)c1-c1c(C)sc2c(C)cc(C)cc12
F

Determine whether this compound has Plant response rating, Soybean no lower than 5: Cc1nn(C)c(=O)c(-c2c(C)sc3ccccc23)c1O
T

State whether the measured Plant response rating, Soybean reaches 5, counting equality as reaching it, for COc1nn(C)c(=O)c(-c2c(C)sc3ccccc23)c1O
F

Confirm if Plant response rating, Soybean reported for the compound COc1nn(C)c(=O)c(-c2c(C)ccc3ccccc23)c1OC(C)=O is 5 or above.
T

###

System: field violet (Viola arvensis)
MEASUREMENT DESCRIPTION: Test D controlled growth environment herbicide test, pre- and postemergence
Assay type: in vivo
DETAILS: Preemergence, 62 g ai/ha
Each entry below lists one item and its recorded Plant response rating (scale of 0 to 100), Field Violet value.
# answer = number (no unit)

CC(=O)Oc1c(C)nn(C)c(=O)c1-c1ccc(F)c2ccccc12: 95
CC(=O)Oc1c(Br)nn(C)c(=O)c1-c1c(C)ccc2ccccc12: 85
Cc1cc(C)c2sc(C)c(-c3c(OC(=O)OCCCl)c(C)nn(C)c3=O)c2c1: 70

Now look at this one.
Provide only the value of recorded Plant response rating (scale of 0 to 100), Field Violet for CC(=O)Oc1c(C)nn(C)c(=O)c1-c1c(C)cc(C)c2ccccc12
100

###

Overview of reported Plant response rating, Kochia across a group of compounds:
Test system: kochia (Kochia scoparia)
MEASUREMENT DESCRIPTION: Test D controlled growth environment herbicide test, pre- and postemergence
Type: in vivo
DETAILS: Preemergence, 250 g ai/ha; scale 0 to 100 (0 no effect, 100 complete control)
Output: the number by itself.

Example compounds with recorded Plant response rating, Kochia:
C#CCOC(=O)Oc1c(C)nn(C)c(=O)c1-c1c(C)sc2ccc(C)cc12: 100
CCOC(=O)Oc1c(C)nn(C)c(=O)c1-c1c(C)sc2ccc(C)cc12: 100

Assign Plant response rating, Kochia to the following record: CC(=O)Oc1c(C)nn(C)c(=O)c1-c1c(C)cc(C)c2ccccc12
70

###

Tested on: bromegrass, downy (downy bromegrass, Bromus tectorum)
MEASUREMENT DESCRIPTION: Test D controlled growth environment herbicide test, pre- and postemergence
Format: in vivo
DETAILS: Preemergence, 125 g ai/ha; scale 0 to 100 (0 no effect, 100 complete control)
Record Criterion met whenever Plant response rating, Bromegrass, Downy is at 60 or higher; record Criterion not met when lower.

CCC(=O)Oc1c(C)nn(C)c(=O)c1-c1c(C)sc2c(C)cc(C)cc12: Criterion met

Quick check: does CC(=O)Oc1c(C)nn(C)c(=O)c1-c1ccc(F)c2ccccc12 have Plant response rating, Bromegrass, Downy greater than or equal to 60?
Criterion not met

Does Plant response rating, Bromegrass, Downy meet or surpass 60 for COc1nn(C)c(=O)c(-c2c(C)ccc3ccccc23)c1OC(=O)OC(C)C ?
Criterion not met

Confirm if Plant response rating, Bromegrass, Downy reported for the compound Cc1cc(C)c2sc(C)c(-c3c(OC(=O)OCCCl)c(C)nn(C)c3=O)c2c1 is 60 or above.
Criterion not met

I'd appreciate it if you could say whether COc1nn(C)c(=O)c(-c2c(C)ccc3ccccc23)c1O has Plant response rating, Bromegrass, Downy at least equal to 60.
Criterion not met

Hello, I need to know if COC(=O)Oc1c(C)nn(C)c(=O)c1-c1c(C)sc2c(C)cc(C)cc12 has measured Plant response rating, Bromegrass, Downy not below 60. Thanks!
Criterion not met

The origin of these recorded values is patent US10597388B2.
